- assayed.target: hSSTR5 (Homo sapiens, UniProt P35346)
- Construct: expressed in transfected cells; host or cells: CHO-K1 (ATCC), pcDNA3.1, G418-selected clonal line; membranes
- Sequence (P35346 whole entry): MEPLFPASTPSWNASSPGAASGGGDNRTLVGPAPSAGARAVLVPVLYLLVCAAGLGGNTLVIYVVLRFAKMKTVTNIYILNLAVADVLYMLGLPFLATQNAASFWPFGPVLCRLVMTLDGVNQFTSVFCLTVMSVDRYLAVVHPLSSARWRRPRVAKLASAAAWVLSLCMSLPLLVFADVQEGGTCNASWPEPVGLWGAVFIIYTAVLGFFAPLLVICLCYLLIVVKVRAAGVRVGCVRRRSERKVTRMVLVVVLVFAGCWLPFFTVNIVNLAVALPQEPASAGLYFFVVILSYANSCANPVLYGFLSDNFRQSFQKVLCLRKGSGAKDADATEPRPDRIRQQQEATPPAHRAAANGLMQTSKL
- assay.summary: Somatostatin receptor radioligand binding assay (hSSTR5)
- run.conditions: CHO-K1 cell membranes; 0.05 nM [125I-Tyr]-[DPhe-cyclo(Cys-Tyr-DTrp-Lys-Val-Cys)-Thr-NH2]; 60 minutes at 25°C; read-out: hSSTR5 Ki (nM) ± SEM
Bridge positions count the residues as written; N and C are the ends. Square brackets hold non-standard residues; d marks the D form. Peptide text beside a SMILES is read from it. * marks the point of attachment. X2 = CN1C[C@H](CSCC(=O)*)C[C@@H]2c3cccc4[nH]cc(c34)C[C@H]21; 4Pal = N[C@@H](Cc1ccncc1)C(=O)O
So I've got a bunch of compounds here, and I need their Ki values.
Dear colleague, please send the value followed by its unit.

Some solved entries appear below for comparison.
[ask] Any idea what its Ki is? The compound is C[C@@H](O)[C@@H]1NC(=O)[C@H](CCCCN)NC(=O)[C@@H](Cc2c[nH]c3ccccc23)NC(=O)[C@H](Cc2ccncc2)NC(=O)[C@H](Cc2ccccc2)NC(=O)[C@H](CCCNC(=N)N)NC(=O)[C@H](NC(=O)CSC[C@@H]2C[C@@H]3c4cccc5[nH]cc(c45)C[C@H]3N(C)C2)CCCCNC(=O)[C@H](Cc2ccccc2)NC1=O [Compound 24] (X2-[dK]RF[4Pal][dW]KTF; lactam 1-C)
[reply] 2.39 nM

[ask] Any idea what its Ki is? The compound is C[C@@H](O)[C@@H]1NC(=O)[C@H](CCCCN)NC(=O)[C@@H](Cc2c[nH]c3ccccc23)NC(=O)[C@H](Cc2ccncc2)NC(=O)[C@H](Cc2ccccc2)NC(=O)[C@H](CCCNC(=N)N)NC(=O)[C@H](NC[C@H](CCCCNC(=O)C[S+]([O-])C[C@@H]2C[C@@H]3c4cccc5[nH]cc(c45)C[C@H]3N(C)C2)NC(=O)C[S+]([O-])C[C@@H]2C[C@@H]3c4cccc5[nH]cc(c45)C[C@H]3N(C)C2)CCCCNC(=O)[C@H](Cc2ccccc2)NC1=O (stereo partly drawn)
[reply] 0.86 nM

Continue with the compound presented below.
[ask] Any idea what its Ki is? The compound is CC(=O)N(CCC(=O)NC(CN[C@@H]1CCCCNC(=O)[C@H](Cc2ccc(F)cc2)NC(=O)[C@H]([C@@H](C)O)NC(=O)[C@H](CCCCN)NC(=O)[C@@H](Cc2c[nH]c3ccccc23)NC(=O)[C@H](Cc2ccccc2)NC(=O)[C@H](Cc2ccccc2)NC(=O)[C@H](CCCNC(=N)N)NC1=O)Cc1ccc(O)cc1)C[C@@H]1C[C@@H]2c3cccc4[nH]cc(c34)C[C@H]2N(C)C1 (single isomer, unassigned)
[reply] 0.53 nM

Each recorded value in this set is attributed to patent EP2914280B1.
